experiment.summary: Plasma pharmacokinetics of TG101348, non-compartmental analysis
Assay type: in vivo, human
cond: human, plasma, oral; 60 mg/day (n = 3); multiple daily doses; Cycle 1, Day 28; median
Counter-ions that a name gives are not always drawn.
readout.kind: Tmax
Just so you know, I need the unit written after the number.

Input: What value of Tmax has been recorded for this entry: Cc1cnc(Nc2ccc(OCCN3CCCC3)cc2)nc1Nc1cccc(S(=O)(=O)NC(C)(C)C)c1 [TG101348, dihydrochloride monohydrate]
Output: 1 h
